assay: chemical genetic growth profiling, strain panel (AID 1159580);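 note: tested at 20 µM; growth read once vehicle control cultures reached saturation at 30 °C; 1 = growth at the plate median or of vehicle wells; lower values mean less growth of the strain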; settings: S. cerevisiae deletion strains, growth OD, locus YKR001C, strain vps1, active compounds read low
Screen size: about 5,500 compounds; about 2,000 (36%) were called active. About 18% were inconclusive and are not listed. Some of the results follow.
ASSAY ENDPOINT: normalized growth
Reply with just the number.

Q) Which measured normalized growth value corresponds to C=C1C(C)C2C(Cc3ccccc3)NC(=O)C23OC(=O)/C=C/C(=O)CCCC(C)C/C=C/C3C1O (centres undefined) ?
A) 0.935

Q) Subsequent entry: `CCCCN(CCCC)CCCOC(=O)c1ccc(N)cc1`
A) 0.98

Q) Subsequent entry: `O=C(O)c1cc2cc(Cc3cccnc3)ccc2o1`
A) 0.997

Q) Subsequent entry: O=C1CC2OCC=C3CN4CC[C@]56c7ccccc7N1C5[C@H]2[C@H]3CC46 (some centres undefined)
A) 0.996

Q) Subsequent entry: C#CCCCCCCCCCCCC(O)CC(O)CO (centres undefined)
A) 1

Q) Subsequent entry: C[C@@H]1C(=O)OC2[C@H](O)C34[C@@H]5OC(=O)[C@@]3(O[C@@H]3OC(=O)[C@H](O)[C@@]34[C@H](C(C)(C)C)[C@H]5O)[C@]21O (some centres undefined)
A) 1.02

Q) Subsequent entry: COc1cc2c(cc1OC)C1Cc3ccc(OC)c(OC)c3CN1CC2 (centres undefined)
A) 1.01

Q) Subsequent entry: `CCCCOC(=O)c1ccccc1C(=O)OCCCC`
A) 0.983

Q) Subsequent entry: C#CCCCCCCCCCCCC(=O)CC(O)COC(C)=O (centres undefined)
A) 0.754

Q) Subsequent entry: `CC(C)(C)CC(C)(C)c1ccc(O)c(Cc2ccc(Cl)cc2Cl)c1`
A) 1.01

Q) Subsequent entry: `Oc1ccc(Cl)cc1Cc1cc(Cl)ccc1O`
A) 0.0604

Q) Subsequent entry: C=C1C(=O)O[C@@H]2C3O[C@]3(C)CC/C=C(\C)CC[C@@H]12 (some centres undefined)
A) 0.544

Q) Subsequent entry: `CCN(CC)CCOC(=O)c1ccc(N)cc1`
A) 0.986

Q) Subsequent entry: C=C1C(C)C2C(Cc3ccccc3)NC(=O)C23OC(=O)/C=C/C(O)CCCC(C)C/C=C/C3C1O (centres undefined)
A) 0.994

Q) Subsequent entry: `Clc1cccc(Cl)c1NC1=NCCN1`
A) 1.01

Q) Subsequent entry: CCC(C)c1cnc(CC(C)C)c(=O)n1O (centres undefined)
A) 0.963

Q) Subsequent entry: C#CCCCCCCCCCCCC(O)CC(O)COC(C)=O (centres undefined)
A) 0.871

Q) Subsequent entry: CC1(C)OC(=O)C=CC2(C)C1CC(O)C1(C)C2CCC2(C)C(c3ccoc3)OC(=O)C3OC321 (centres undefined)
A) 1.04

Q) Subsequent entry: `CC(=O)OCC(COC(C)=O)OC(C)=O`
A) 1.02

Q) Subsequent entry: `O=C(O)CN1C(=O)c2cccc3cccc(c23)C1=O`
A) 1.01

Q) Subsequent entry: `OCc1ccccc1O`
A) 0.989

Q) Subsequent entry: C=C1C(=O)OC2CC1C(OC(C)=O)C/C(C)=C/CC/C(C)=C/CC[C@]2(C)O (some centres undefined)
A) 1.02

Q) Subsequent entry: `Oc1ccc(Cl)cc1`
A) 0.996

Q) Subsequent entry: `CC(=O)OCC[C@H](C)CCC=C(C)C`
A) 1.03

====

assay: chemical genetic growth profiling, strain panel (AID 1159580); settings: S. cerevisiae deletion strains, growth OD, locus YOL078W, strain AVO1, active compounds read low
About 2,000 (36%) of roughly 5,500 compounds were called active. About 18% were inconclusive and are not listed. Some of the results follow.
ASSAY ENDPOINT: normalized growth
Reply with just the number.

Q) Which measured normalized growth value corresponds to `Cc1ccc(NS(=O)(=O)c2ccc(-c3csc(C)n3)s2)c(C)c1` ?
A) 0.983

Q) Subsequent entry: `Cc1nc(-c2ccc(S(=O)(=O)Nc3ccc(Br)cc3Cl)s2)cs1`
A) 0.952

Q) Subsequent entry: `FC(F)(F)c1cccc(-n2c(CSCc3cccc4ccccc34)n[nH]c2=S)c1`
A) 0.99

Q) Subsequent entry: `O=C(NNc1ccc(I)cc1)c1cc(Cl)cc(Cl)c1`
A) 0.955

Q) Subsequent entry: `Cc1c(C(=S)Nc2ccccc2)sc2ccccc12`
A) 0.934

====

experiment: chemical genetic growth profiling, strain panel (AID 1159580);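 note: tested at 20 µM; growth read once vehicle control cultures reached saturation at 30 °C; 1 = growth at the plate median or of vehicle wells; lower values mean less growth of the strain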; conditions: S. cerevisiae deletion strains, growth OD, locus YAR019C, strain CDC15, active compounds read low
Out of some 5,500 compounds screened, about 2,000 (36%) were called active. About 18% were inconclusive and are not listed. This is one part of the list.
For each entry below, report its normalized growth value.
Reply with just the number.

Q) Which measured normalized growth value corresponds to `O=C(NNc1ccc(I)cc1)c1cc(Cl)cc(Cl)c1` ?
A) 0.949

Q) Subsequent entry: `Cc1c(C(=S)Nc2ccccc2)sc2ccccc12`
A) 0.943

Q) Subsequent entry: `Cc1ccc(NS(=O)(=O)c2ccc(-c3csc(C)n3)s2)c(C)c1`
A) 0.977

Q) Subsequent entry: `CC(C)(C)c1ccc(C(=O)NNc2c(Cl)cccc2Cl)cc1`
A) 0.977

Q) Subsequent entry: `Cc1cccc(NC(=S)NNC(=O)CSCc2cccc3ccccc23)c1`
A) 0.986

Q) Subsequent entry: `ClC1=C(C=Nc2ccc(Cl)cc2)CSc2ccc(Cl)cc21`
A) 0.941

Q) Subsequent entry: `CCc1ccn2cc(Nc3ccccc3Cl)nc2c1`
A) 0.983

Q) Subsequent entry: `Cc1onc(-c2c(Cl)cccc2Cl)c1C(=O)NNc1c(Cl)cccc1Cl`
A) 0.962

Q) Subsequent entry: `Cc1onc(-c2c(F)cccc2Cl)c1C(=O)ON=C1C2CC3CC(C2)CC1C3`
A) 1.06

Q) Subsequent entry: `Cc1onc(-c2c(Cl)cccc2Cl)c1C(=O)NC(C)(C)CC(C)(C)C`
A) 0.998

Q) Subsequent entry: `OC(=Cc1nc2ccccc2nc1C=C(O)c1ccc(Cl)cc1)c1ccc(Cl)cc1`
A) 0.993

====

For each entry below, report its normalized growth value.
experiment: chemical genetic growth profiling, strain panel (AID 1159580);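 note: tested at 20 µM; growth read once vehicle control cultures reached saturation at 30 °C; 1 = growth at the plate median or of vehicle wells; lower values mean less growth of the strain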; conditions: S. cerevisiae deletion strains, growth OD, locus YEL061C, strain CIN8, active compounds read low
In all, about 5,500 compounds went through this assay and about 2,000 (36%) were called active. About 18% were inconclusive and are not listed. This is one part of the list.
Reply with just the number.

Q) Which measured normalized growth value corresponds to `Cc1nc(-c2ccc(S(=O)(=O)N3CCN(c4ncnc5scc(-c6ccccc6)c45)CC3)s2)cs1` ?
A) 0.995

Q) Subsequent entry: `COc1cc([C@@H]2c3cc4c(c(O)c3C[C@H]3COC(=O)[C@@H]32)OCO4)cc(OC)c1OC`
A) 0.99

Q) Subsequent entry: Oc1ccc2c(c1)OCC1c3cc4c(cc3OC21)OCO4 (centres undefined)
A) 0.99

Q) Subsequent entry: `CO/N=C(\C(=O)N[C@@H]1C(=O)N2C(C(=O)O)=C(COC(C)=O)CS[C@H]12)c1csc(N)n1`
A) 0.995

Q) Subsequent entry: `CO/N=C(\C(=O)N[C@@H]1C(=O)N2C(C(=O)O)=C(CSc3nc(=O)c(O)nn3C)CS[C@H]12)c1csc(N)n1`
A) 1

Q) Subsequent entry: C=C1CCC(=O)C(C)CCC2C1CC2(C)C (centres undefined)
A) 1.01

Q) Subsequent entry: `CCOC(=O)[C@H](CCc1ccccc1)N[C@@H](C)C(=O)N1[C@H](C(=O)O)C[C@@H]2CCC[C@@H]21`
A) 1.01

Q) Subsequent entry: CC1(C)O[C@@H]2CC3C4CCC5=CC(=O)CCC5(C)C4(F)C(O)CC3(C)[C@]2(C(=O)CCl)O1 (some centres undefined)
A) 0.998

Q) Subsequent entry: `NC(=O)c1cccc(N)c1`
A) 1.01

Q) Subsequent entry: `CC(C)(C)S(=O)(=O)/C(C#N)=C/N1CCCCC1`
A) 1.05

Q) Subsequent entry: C=C1CCC2C(CC2(C)C)C(=O)CCC1O (centres undefined)
A) 1.02

Q) Subsequent entry: CC[C@H](C)C(=O)O[C@H]1CCC=C2C=C[C@H](C)C(CCC3C[C@@H](O)CC(=O)O3)[C@H]21 (some centres undefined)
A) 0.99

Q) Subsequent entry: C=C1CCC2C(CC2(C)C)C(=C)CC/C1=N\O (centres undefined)
A) 1.01

Q) Subsequent entry: `COc1ccc([C@H]2Oc3cc(OC)cc(OC)c3C[C@H]2O)cc1`
A) 1.02

====

assay: chemical genetic growth profiling, strain panel (AID 1159580);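 note: tested at 20 µM; growth read once vehicle control cultures reached saturation at 30 °C; 1 = growth at the plate median or of vehicle wells; lower values mean less growth of the strain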; details: S. cerevisiae deletion strains, growth OD, locus YPL240C, strain hsp82
Hit rate of the full screen: of about 5,500 compounds, about 2,000 (36%) were called active. Not shown: some 18% with an inconclusive outcome. Cut-off read from the data, not from the text of the source: active = normalized growth mostly below about 0.91 (no sharp cut-off); inconclusive = no clear call, values can overlap the other calls; inactive = mostly above about 0.92. Some of the results follow.
Outcome (select one): true (1) (active), false (0) (inactive)

Q) Look up the recorded call for CCCCCCCCCCCCCCCC(=O)OC1C(SC)OC(C(NC(=O)C2CC(CCC)CN2C)C(C)Cl)C(O)C1O (stereo not drawn) in this test.
A) false (0)

Q) Subsequent entry: `CC(=O)Oc1c(C)cccc1C(=O)O`
A) false (0)

Q) Subsequent entry: `COc1cc(OC)c2c(=O)c(-c3ccccc3)coc2c1`
A) false (0)

Q) Subsequent entry: NS(=O)(=O)c1cc2c(cc1Cl)NC(C(Cl)Cl)NS2(=O)=O (stereo not drawn)
A) false (0)

Q) Subsequent entry: `CCCCCCOc1ccccc1C(N)=O`
A) false (0)

Q) Subsequent entry: CO/N=C(\C(=O)NC1C(=O)N2C(C(=O)OC(C)OC(C)=O)=C(COC(N)=O)CSC12)c1ccco1 (stereo not drawn)
A) false (0)

Q) Subsequent entry: CC(C)(Oc1ccc(C2CC2(Cl)Cl)cc1)C(=O)O (stereo not drawn)
A) false (0)

Q) Subsequent entry: `COc1c(OC)c2occc2c2oc(=O)ccc12`
A) false (0)

Q) Subsequent entry: `CCCOc1ccc(C(=O)OCCN(CC)CC)cc1N`
A) false (0)

Q) Subsequent entry: C=CC(N)CCC(=O)O (stereo not drawn)
A) false (0)

Q) Subsequent entry: CC(C)COCC(CN(Cc1ccccc1)c1ccccc1)N1CCCC1 (stereo not drawn)
A) false (0)

Q) Subsequent entry: `COc1c2ccoc2c(OC)c2oc(=O)ccc12`
A) false (0)

Q) Subsequent entry: C[C@@H]1C(=O)OC2[C@H](O)C34[C@@H]5OC(=O)[C@@]3(O[C@@H]3OC(=O)[C@H](O)[C@@]34[C@H](C(C)(C)C)[C@H]5O)[C@]21O (stereo partly drawn)
A) false (0)

Q) Subsequent entry: `CCN(CC)CCOC(=O)c1ccc(N)cc1`
A) false (0)

Q) Subsequent entry: CCCC(=O)O[C@]1(C(=O)CO)CCC2[C@@H]3CCC4=CC(=O)CC[C@]4(C)C3[C@@H](O)C[C@@]21C (stereo partly drawn)
A) false (0)

Q) Subsequent entry: `Cc1ccc(Cl)c(Nc2ccccc2C(=O)O)c1Cl`
A) true (1)

Q) Subsequent entry: `CCCCN(CCCC)CCCOC(=O)c1ccc(N)cc1`
A) false (0)

Q) Subsequent entry: `O=C(O)c1ccccc1-c1c2cc(Br)c(=O)cc-2oc2[c]([Hg])c(O)c(Br)cc12`
A) false (0)

Q) Subsequent entry: `CCCCC(=O)Oc1ccccc1C(=O)O`
A) false (0)

Q) Subsequent entry: `COc1cc2occ(-c3ccccc3)c(=O)c2c(OC)c1C`
A) false (0)

Q) Subsequent entry: `Cc1cccc(Nc2ccccc2C(=O)O)c1C`
A) true (1)

Q) Subsequent entry: `CCNC(=O)CC[C@H](N)C(=O)O`
A) false (0)

Q) Subsequent entry: `CO/N=C(\C(=O)N[C@@H]1C(=O)N2C(C(=O)O)=C(COC(C)=O)CS[C@H]12)c1csc(N)n1`
A) false (0)

These data points were gathered from PubChem BioAssay AID1159580.
